Source: PubChem BioAssay AID330

So I've got a bunch of compounds here, and I need their T/C values.
tested on: P388 leukemia ip, CD2F1 mice, survival T/C; assay: NCI In Vivo Anticancer Drug Screen. Data for tumor model P388 Leukemia (intraperitoneal) in CD2F1 (CDF1) mice; conditions: endpoint: median survival time; dose: 200.0 mg/kg/injection; schedule: Q01DX005 (ip); vehicle: saline with Tween-80; higher = longer survival
Toxic doses and inconclusive results are not listed.

Some solved entries appear below for comparison.
{"columns": ["compound", "endpoint", "result"],
 "data": [
  ["CCN(SSN(CC)S(=O)(=O)c1ccc(C)cc1)S(=O)(=O)c1ccc(C)cc1", "T/C", "110 % of control"],
  ["NC1CN(C(COCc2ccccc2)c2ccc(OCc3ccccc3)cc2)C1=O (centres undefined)", "T/C", "97 % of control"],
  ["COc1c(Cl)cc(Cl)cc1C(=O)NO", "T/C", "112 % of control"],
  ["COc1cc(C(CC#N)CC#N)cc(OC)c1OC", "T/C", "97 % of control"],
  ["c1ccc2c(c1)ccc1cccnc12", "T/C", "102 % of control"]
]}

List reported T/C for each of these compounds:
1. Cc1cccc(NC(=S)NNc2nnc(-c3ccccc3)c(-c3ccccc3)n2)c1
2. O=C1c2ccccc2C(=O)c2c(OCCOCCO)cccc21
3. CCOc1c(N=Nc2ccc(OC)cc2)c(-c2ccccc2)nn1C(N)=S
4. CC1CCCN2C(=O)CN(c3ccccc3)CC(=O)N12 (centres undefined)
5. CCn1c2ccc([N+](=O)[O-])cc2c2c([N+](=O)[O-])c(NC=O)ccc21
6. NS(=O)(=O)c1nc2nc[nH]c(=O)c2[nH]1
7. COC(=O)CCC(=O)C(C#N)c1nc2ccccc2s1 (centres undefined)

Result:
100 % of control
96 % of control
102 % of control
99 % of control
86 % of control
101 % of control
92 % of control

List reported T/C for each of these compounds:
1. CCOC(=O)C(=CNc1cccc2c(O)cccc12)C(=O)OCC
2. CC(=O)Nc1cc(S(=O)(=O)O)cc2c(N=Nc3ccc(C(=O)Nc4ccc(N=Nc5ccc(S(=O)(=O)O)cc5)cc4)cc3)c(S(=O)(=O)O)cc(O)c12
3. COCCN1C(N)=C(C#N)N=C2CCCC(N=C(C#N)C#N)=C21

Result:
95 % of control
101 % of control
101 % of control

====

So I've got a bunch of compounds here, and I need their T/C values.
Test system: P388 leukemia ip, CD2F1 mice, survival T/C
Assay: NCI In Vivo Anticancer Drug Screen. Data for tumor model P388 Leukemia (intraperitoneal) in CD2F1 (CDF1) mice
Settings: endpoint: median survival time; dose: 50.0 mg/kg/injection; schedule: Q01DX001 (ip); vehicle: Klucel (hydroxypropylcellulose) (HPC); higher = longer survival
Procedure: The antitumor activity of compounds was measured in mice bearing transplantable tumors. Survival or tumor size were measured and the results are expressed as the measurement made in the treated group (T) divided by the measurement made in the vehicle treated control group (C). The tumor model used in this assay is P388 Leukemia (intraperitoneal) in CD2F1 (CDF1) mice
Toxic doses and inconclusive results are not listed.

Some solved entries appear below for comparison.
{"columns": ["compound", "target system", "endpoint", "result"],
 "data": [
  ["CCCC1N[C@H](C(=O)O)CS1 (stereo partly specified)", "P388 leukemia ip, CD2F1 mice, survival T/C", "T/C", "100 % of control"],
  ["OCc1c(Cl)nc2sccn12", "P388 leukemia ip, CD2F1 mice, survival T/C", "T/C", "105 % of control"],
  ["CCOC(=O)C(N=Nc1nn[nH]n1)c1ncn[nH]1 (stereo unspecified)", "P388 leukemia ip, CD2F1 mice, survival T/C", "T/C", "98 % of control"]
]}

List reported T/C for each of these compounds:
1. CNC(=O)OCc1c(Cl)nc2n1CCS2
2. O=C(CCc1cc2[nH]c1c(-c1ccccc1)c1nc(c(-c3ccccc3)c3ccc([nH]3)c(-c3ccccc3)c3nc(c2-c2ccccc2)C=C3)C=C1)NCCCn1ccnc1
3. O=Nc1ccc(O)c2ncccc12

Result:
1: 109 % of control; 2: 99 % of control; 3: 111 % of control

====

test system: P388 leukemia ip, CD2F1 mice, survival T/C; assay: NCI In Vivo Anticancer Drug Screen. Data for tumor model P388 Leukemia (intraperitoneal) in CD2F1 (CDF1) mice; settings: endpoint: median survival time; dose: 120.0 mg/kg/injection; schedule: Q01DX005 (ip); vehicle: saline; higher = longer survival
Toxic doses and inconclusive results are not listed.
endpoint: T/C

{"columns": ["compound", "T/C"],
 "data": [
  ["Clc1ccc2c(c1)C(c1ccccc1Cl)=NCC(SCCN1CCOCC1)=N2", "101 % of control"],
  ["Cc1cc(-c2cc(C)nc(N)n2)nc(N)n1", "100 % of control"],
  ["O=c1c(N=Nc2nc3ccccc3s2)c(O)n(-c2ccccc2)c(=S)n1-c1ccccc1", "100 % of control"],
  ["COC(=O)C1C2CCCN2OC1(C)CO (centres undefined)", "96 % of control"]
]}

List reported T/C for each of these compounds:
1. COCC1OCCCO1
2. CCCCCCC(C)OC(=O)OCCOCCOC(=O)OC(C)C(=O)OCCCC (centres undefined)
3. CN(C)C(=O)Nc1ccc(-c2cccnc2)cc1
4. OC[C@H]1N[C@H](CO)[C@@H](O)[C@H]1O
5. NCCN.NCCN.[Cl-].[O]=[Re]=[O]

Result:
["98 % of control", "94 % of control", "107 % of control", "99 % of control", "102 % of control"]

====

So I've got a bunch of compounds here, and I need their T/C values.
Tested on: P388 leukemia ip, CD2F1 mice, survival T/C
Test: NCI In Vivo Anticancer Drug Screen. Data for tumor model P388 Leukemia (intraperitoneal) in CD2F1 (CDF1) mice
Settings: endpoint: median survival time; dose: 25.0 mg/kg/injection; schedule: Q04DX002 (ip); vehicle: saline; higher = longer survival
Description: The antitumor activity of compounds was measured in mice bearing transplantable tumors. Survival or tumor size were measured and the results are expressed as the measurement made in the treated group (T) divided by the measurement made in the vehicle treated control group (C). The tumor model used in this assay is P388 Leukemia (intraperitoneal) in CD2F1 (CDF1) mice
Toxic doses and inconclusive results are not listed.

Some solved entries appear below for comparison.
{"columns": ["compound", "T/C"],
 "data": [
  ["COc1cc2c(cc1OC)C(O)C1CCCNC1C2 (centres undefined)", "98 % of control"],
  ["CC[N+](C)(CC)c1ccccc1", "103 % of control"],
  ["COc1ccc(Cl)[n+]([O-])n1", "104 % of control"]
]}

Now turn to the next compound.
Ask: Using known records, supply T/C for CC(C)NCc1ccccc1Sc1ccccc1CNC(C)C
Result: 103 % of control

====

system: P388 leukemia ip, CD2F1 mice, survival T/C; test: NCI In Vivo Anticancer Drug Screen. Data for tumor model P388 Leukemia (intraperitoneal) in CD2F1 (CDF1) mice; conditions: endpoint: median survival time; dose: 12.5 mg/kg/injection; schedule: Q04DX003 (ip); vehicle: saline with Tween-80; higher = longer survival
Toxic doses and inconclusive results are not listed.
So I've got a bunch of compounds here, and I need their T/C values.

Some solved entries appear below for comparison.
{"columns": ["compound", "result"],
 "data": [
  ["CCc1nc(N)nc(N)c1-c1ccc(Cl)c(Cl)c1.[Cl][Pd][Cl]", "95 % of control"],
  ["CC(CN(C)C)CN1c2ccccc2Sc2ccccc21 (centres undefined)", "112 % of control"],
  ["CCCCCCCCCCCCCCCc1ccc(C(=O)C[n+]2ccccc2)cc1", "118 % of control"]
]}

Now turn to the next compound.
Ask: Using known records, supply T/C for COC(=O)C12Oc3ccc(-c4ccc5c(c4O)C(O)=C4C(=O)CC(C)C(O)C4(C(=O)OC)O5)c(O)c3C(O)=C1C(=O)CC(C)C2O (centres undefined)
Result: 109 % of control

====

system: P388 leukemia ip, CD2F1 mice, survival T/C; test: NCI In Vivo Anticancer Drug Screen. Data for tumor model P388 Leukemia (intraperitoneal) in CD2F1 (CDF1) mice; details: endpoint: median survival time; dose: 100.0 mg/kg/injection; schedule: Q01DX001 (ip); vehicle: Klucel (hydroxypropylcellulose) (HPC)
Toxic doses and inconclusive results are not listed. The calls were made as follows: active = survival T/C of 150% or more; inactive = T/C below 125% in these data.
# output must be one of active, inactive

Ask: Please let me know the test result on file for COc1ccc(C(=O)/C=C/c2ccc(OC)c(OC)c2OCc2ccccc2)c(O)c1 .
Result: inactive

====

system: P388 leukemia ip, CD2F1 mice, survival T/C; assay: NCI In Vivo Anticancer Drug Screen. Data for tumor model P388 Leukemia (intraperitoneal) in CD2F1 (CDF1) mice; settings: endpoint: median survival time; dose: 120.0 mg/kg/injection; schedule: Q01DX005 (ip); vehicle: Klucel (hydroxypropylcellulose) (HPC); higher = longer survival
Inconclusive results and toxic doses are left out.
So I've got a bunch of compounds here, and I need their T/C values.

Some solved entries appear below for comparison.
{"columns": ["compound", "T/C"],
 "data": [
  ["O=C1OC(c2ccccc2)N(c2ccccc2)C(=O)C1Cc1ccccc1 (stereo not given)", "98 % of control"],
  ["O=C(O)c1cccc(-c2c3ccc(=O)cc-3oc3cc(O)ccc23)c1", "113 % of control"],
  ["CC(C)(C)N(Cc1ccccc1)C(O)Cc1c(-c2ccccc2)c(-c2ccccc2)c2n1CCC2 (stereo not given)", "88 % of control"],
  ["CC(Nc1ncccn1)Nc1ncccn1", "102 % of control"]
]}

Now turn to the next compound.
Ask: Using known records, supply T/C for COC1(OC)C(c2ccc([N+](=O)[O-])cc2)C([N+](=O)[O-])C1(OC)OC (stereo not given)
Result: 93 % of control
